Data credit: ChEMBL document CHEMBL1140601

- SYSTEM UNDER TEST: UniProt:P22303
- Sequence (P22303 whole entry): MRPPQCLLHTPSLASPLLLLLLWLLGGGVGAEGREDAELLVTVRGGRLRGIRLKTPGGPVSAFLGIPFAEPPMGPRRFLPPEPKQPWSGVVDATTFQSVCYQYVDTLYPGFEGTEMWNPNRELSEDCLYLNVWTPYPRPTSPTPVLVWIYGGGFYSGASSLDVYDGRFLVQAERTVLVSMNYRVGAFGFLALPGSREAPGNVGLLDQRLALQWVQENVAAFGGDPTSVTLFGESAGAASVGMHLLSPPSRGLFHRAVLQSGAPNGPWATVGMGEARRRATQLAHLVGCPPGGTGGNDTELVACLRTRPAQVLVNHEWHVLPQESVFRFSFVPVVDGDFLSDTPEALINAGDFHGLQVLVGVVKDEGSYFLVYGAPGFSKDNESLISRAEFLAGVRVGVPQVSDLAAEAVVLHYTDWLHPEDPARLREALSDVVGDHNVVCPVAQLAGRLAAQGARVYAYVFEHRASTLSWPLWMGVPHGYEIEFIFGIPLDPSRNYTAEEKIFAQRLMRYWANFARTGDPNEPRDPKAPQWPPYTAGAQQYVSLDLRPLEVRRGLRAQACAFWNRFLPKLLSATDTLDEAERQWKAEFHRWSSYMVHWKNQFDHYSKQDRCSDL
Please go through the items and note down their logRA.
Give bare numbers.

Consider the worked cases shown below.
# input # get_value(readout='logRA', item= Nc1ccc2nc3c(c(N)c2c1)Cc1ccccc1-3 )
# output -1.37

# input # get_value(readout='logRA', item= CC1=CC2Cc3nc4cc(Cl)ccc4c(NCCCCCCCCNc4c5c(nc6cc(Cl)ccc46)CCCC5)c3C(C1)C2 (stereo unspecified) )
# output 2.71

// each compound listed below needs its logRA
1. CCOC(=O)C1=C(C)Oc2nc3c(c(N)c2C1c1cccnc1)CCCC3 (stereo unspecified)
2. CCOC(=O)C1=C(C)Oc2nc3c(c(N)c2C1c1ccc(C)cc1)CCCC3 (stereo unspecified)
3. Cc1cccc2c1Cc1c-2nc2ccccc2c1N

# output
1: -1.71; 2: -1.15; 3: -1.19

// each compound listed below needs its logRA
1. c1ccc2c(NCCCCCCNc3c4c(nc5ccccc35)CCCCC4)c3c(nc2c1)CCCCC3
2. CCOC(=O)C1=C(C)Oc2nc3c(c(N)c2C1c1ccncc1)CCCC3 (stereo unspecified)
3. CCOC(=O)c1c(C)nc2nc3c(c(N)c2c1-c1ccncc1)CCC3
4. COc1ccc2c(c1)Cc1c-2nc2ccccc2c1N
5. CCOC(=O)C1=C(C)Oc2nc3c(c(N)c2C1c1ccc(OC)c(OC)c1)CCCCC3 (stereo unspecified)

# output
[2.19, -1.33, -1.77, -1.42, -2.26]

# input # get_value(readout='logRA', item= Nc1c2c(nc3ccccc13)-c1ccccc1C2 )
# output -0.435
